Here, each record is paired with measured inhibition at 25 µM data.
- Test system: Rat basophilic leukemia (RBL-2H3) cells
- assay procedure: Mast cell degranulation assay (β-hexosaminidase release)
- Assay type: cell-based
- measurement conditions: Rattus norvegicus, RBL-2H3; 25 μM; read-out: maximum inhibition (concentration used)

structure as smiles	system name	inhibition at 25 µM, %
CCCCCCCCCCCCCCCCOC[C@@H](O)COP(=O)([O-])OCC[N+](C)(C)C	Rat basophilic leukemia (RBL-2H3) cells	41
CCCCCCCCCCCCCCCCOC[C@H](COP(=O)([O-])OCCCCCC[N+](C)(C)C)OC(C)=O	Rat basophilic leukemia (RBL-2H3) cells	45
CCCCCCCCCCCCCCCCCCOCC(C)(C)COP(=O)([O-])OCC[N+](C)(C)C	Rat basophilic leukemia (RBL-2H3) cells	85
CCCCCCCCCCCCCCCC(=O)OC[C@H](O)COP(=O)([O-])OCC[N+](C)(C)C	Rat basophilic leukemia (RBL-2H3) cells	26
CCCCCCCCCCCCCCCCOC[C@H](COP(=O)([O-])OCC[N+](C)(C)C)OC(C)=O	Rat basophilic leukemia (RBL-2H3) cells	42
C/C=C/C(=O)O[C@H](COCCCCCCCCCCCCCCCC)COP(=O)([O-])OCCCCCC[N+](C)(C)C	Rat basophilic leukemia (RBL-2H3) cells	69
CCCCCCCCCCCCCCCCOC[C@H](COP(=O)([O-])OCC[N+]1(C)CCCC1)OC(C)=O	Rat basophilic leukemia (RBL-2H3) cells	53

###

- Test system: Rat basophilic leukemia (RBL-2H3) cells
- assay procedure: Mast cell degranulation assay (β-hexosaminidase release)
- Type: cell-based
- measurement conditions: Rattus norvegicus, 1 h; concentration at which 50% of maximal inhibition is reached; RBL-2H3, 60 min incubation with compound, DNP antigen challenge; read-out: ID50 (the source's name)
readout label: IC50 (µM)

compound	numeric readout
CCCCCCCCCCCCCCCCCCOP(=O)([O-])OC1CC[N+](C)(C)CC1 [Compound 9, reference compound]	2.8
CCCCCCCCCCCCOP(=O)([O-])OCC[N+](C)(C)C [Compound 17, Dodecylphosphocholine]	7.1
CCCCCCCCCCCCCCCCOCC(COP(=O)([O-])OCC[N+](C)(C)C)OC(C)=O (stereo not shown) [Compound 25]	3
C/C=C/C(=O)O[C@H](COCCCCCCCCCCCCCCCC)COP(=O)([O-])OCCCCCC[N+](C)(C)C [Compound 7, butenoyl PAF C-16]	11

###

- Tested on: membrane integrity (lactate dehydrogenase release)
- assay procedure: Cytotoxicity test / membrane integrity assay (Promega Cytotox-One), lactate dehydrogenase release
- measurement conditions: concentration at which 50% of maximal lactate dehydrogenase release is reached
Consider the cut-off 60 µM. If the recorded CD50 is strictly smaller, the label is Met; if not, the label is Not met.

molecule	system name	group label
CCCCCCCCCCCCCCCCOC[C@H](COP(=O)([O-])OCCCCCC[N+](C)(C)C)OC(C)=O	membrane integrity (lactate dehydrogenase release)	Met
C/C=C/C(=O)O[C@H](COCCCCCCCCCCCCCCCC)COP(=O)([O-])OCCCCCC[N+](C)(C)C	membrane integrity (lactate dehydrogenase release)	Not met
CCCCCCCCCCCCCCCCCCOP(=O)([O-])OC1CC[N+](C)(C)CC1 [Compound 9, reference compound]	membrane integrity (lactate dehydrogenase release)	Not met
CCCCCCCCCCCCCCCCOC[C@H](COP(=O)([O-])OCC[N+]1(C)CCCC1)OC(C)=O	membrane integrity (lactate dehydrogenase release)	Met
CCCCCCCCCCCCCCCCOC[C@H](COP(=O)([O-])OCC[N+](C)(C)C)OCC	membrane integrity (lactate dehydrogenase release)	Met
CCCCCCCCCCCCOP(=O)([O-])OCC[N+](C)(C)C	membrane integrity (lactate dehydrogenase release)	Not met
CCCCCCCCCCCCCCCCOC[C@H](CO)OC [Compound 22, 1-O-hexa-decyl-2-O-methyl-sn-glycerol, reference compound]	membrane integrity (lactate dehydrogenase release)	Not met
CCCCCCCCCCCCCCCCOC[C@H](COP(=O)([O-])OCC[N+](C)(C)C)OC	membrane integrity (lactate dehydrogenase release)	Met
CCCCCCCCCCCCCCCCOC[C@H](COP(=O)([O-])OCC[N+](C)(C)C)SC(C)=O	membrane integrity (lactate dehydrogenase release)	Not met
